assay: Intrinsic cytotoxicity, EZ4U cell proliferation and cytotoxicity assay; type: cell-based, human; conditions: human, HeLa cells, compound alone, 3 days, read-out: CC50 (half maximal cytotoxic concentration)
measured_metric: CC50 at 3 days

INSERT INTO results (compound, reported) VALUES
  ('CCCCS(=O)(=O)Oc1c(OC)cc(Br)c2c1CN1CCc3cc4c(cc3C1C2)OCO4 (stereo not drawn) [12d]', '> 100 µM'),
  ('CCCS(=O)(=O)Oc1c(OC)cc(Br)c2c1CN1CCc3cc4c(cc3C1C2)OCO4 (stereo not drawn) [12c]', '> 100 µM'),
  ('COc1ccc2c(c1OS(=O)(=O)c1c(F)c(F)cc(F)c1F)CN1CCc3cc4c(cc3C1C2)OCO4 (stereo not drawn) [11g]', '> 100 µM');

Data provenance is paper PMC7582571.
